assay: Intrinsic clearance in human hepatocytes assessed per million cells at 1 uM measured after 90 mins by LC-MS/MS analysis; format: ADME, cell-based, Hepatocyte; settings: read-out: CLH
measuredParameter: hepatocyte CLint at 1 µM (µL/min/1e6 cells)

(A) COc1ccc(S(=O)(=O)N2CCS[C@H]2C(=O)O[C@@H](Cc2c(Cl)c[n+]([O-])cc2Cl)c2ccc(OC(F)F)c(OCC3CC3)c2)cc1C(=O)N(C)C (relative stereo)
(B) CN(C)C(=O)c1cccc(S(=O)(=O)N2CSC[C@H]2C(=O)O[C@@H](Cc2c(Cl)c[n+]([O-])cc2Cl)c2ccc(OC(F)F)c(OCC3CC3)c2)c1
(C) CN(C)C(=O)c1cccc(S(=O)(=O)N2CCS[C@H]2C(=O)O[C@@H](Cc2c(Cl)c[n+]([O-])cc2Cl)c2ccc(OC(F)F)c(OCC3CC3)c2)c1
List from greatest to least hepatocyte CLint at 1 µM. Reply with the item labels sorted in the order that was asked for. C, A, B

====

assay: Inhibition of PDE4 in human PBMC assessed as reduction in LPS-induced TNFalpha release after 18 hrs by quantitative ELISA
measuredParameter: IC50 (nM)

(A) O=C(O[C@@H](Cc1c(Cl)c[n+]([O-])cc1Cl)c1ccc(OC(F)F)c(OCC2CC2)c1)[C@H]1CCCN1S(=O)(=O)c1ccccc1
(B) CN(C)C(=O)c1cccc(S(=O)(=O)N2CCS[C@H]2C(=O)O[C@@H](Cc2c(Cl)c[n+]([O-])cc2Cl)c2ccc(OC(F)F)c(OCC3CC3)c2)c1
(C) CS(=O)(=O)N1CCC[C@H]1C(=O)O[C@@H](Cc1c(Cl)c[n+]([O-])cc1Cl)c1ccc(OC(F)F)c(OCC2CC2)c1 (relative stereo)
(D) CN(C)C(=O)c1cccc(S(=O)(=O)N2CCS[C@@H]2C(=O)O[C@@H](Cc2c(Cl)c[n+]([O-])cc2Cl)c2ccc(OC(F)F)c(OCC3CC3)c2)c1
(E) CN(C)C(=O)c1cccc(C(=O)N2CCS[C@H]2C(=O)O[C@@H](Cc2c(Cl)c[n+]([O-])cc2Cl)c2ccc(OC(F)F)c(OCC3CC3)c2)c1
Ranking request: IC50, max to min, items above. Your reply should list the labels following the order given in the request. C, E, A, D, B
(C: 4.2 nM, E: 0.57 nM, A: 0.34 nM, D: 0.047 nM, B: 0.019 nM)

====

test: Protein binding in human plasma at 5 uM after 5 hrs by LC-MS/MS analysis; assay type: ADME, cell-free; conditions: read-out: PPB (converted)
measuredParameter: fraction unbound at 5 h, 5 µM

CN(C)C(=O)c1cccc(S(=O)(=O)N2CSC[C@H]2C(=O)O[C@@H](Cc2c(Cl)c[n+]([O-])cc2Cl)c2ccc(OC(F)F)c(OCC3CC3)c2)c1 : 0.0017
CNC(=O)c1cc(S(=O)(=O)N2CCS[C@H]2C(=O)O[C@@H](Cc2c(Cl)c[n+]([O-])cc2Cl)c2ccc(OC(F)F)c(OCC3CC3)c2)cn1C (relative stereo) : 0.0016
CN(C)C(=O)c1cccc(S(=O)(=O)N2CCCC[C@H]2C(=O)O[C@@H](Cc2c(Cl)c[n+]([O-])cc2Cl)c2ccc(OC(F)F)c(OCC3CC3)c2)c1 (relative stereo) : 0.0012

====

test: Intrinsic clearance in human hepatocytes assessed per million cells at 1 uM measured after 90 mins by LC-MS/MS analysis; format: ADME, cell-based, Hepatocyte; details: read-out: CLH
measuredParameter: hepatocyte CLint at 1 µM (µL/min/1e6 cells)

CN(C)C(=O)c1cccc(S(=O)(=O)N2CCCC[C@H]2C(=O)O[C@@H](Cc2c(Cl)c[n+]([O-])cc2Cl)c2ccc(OC(F)F)c(OCC3CC3)c2)c1 (relative stereo) : 64.6
Cn1cnc(S(=O)(=O)N2CCS[C@H]2C(=O)O[C@@H](Cc2c(Cl)c[n+]([O-])cc2Cl)c2ccc(OC(F)F)c(OCC3CC3)c2)c1 : 66.9
CNC(=O)c1cc(S(=O)(=O)N2CCS[C@H]2C(=O)O[C@@H](Cc2c(Cl)c[n+]([O-])cc2Cl)c2ccc(OC(F)F)c(OCC3CC3)c2)cn1C (relative stereo) : 47.6
COc1ccc(S(=O)(=O)N2CCS[C@H]2C(=O)O[C@@H](Cc2c(Cl)c[n+]([O-])cc2Cl)c2ccc(OC(F)F)c(OCC3CC3)c2)cc1OC (relative stereo) : 53.8
